Answer each item with its documented Dmax.
Target: HPK1 (Homo sapiens)
Construct: A HiBiT tag was introduced by CRISPR on the N terminus of HPK1 in Jurkat cells; host or cells: Jurkat cells (ATCC TIB-152), monoclonal line with CRISPR knock-in of HiBiT at the endogenous HPK1 locus
Sequence (Q92918 whole entry): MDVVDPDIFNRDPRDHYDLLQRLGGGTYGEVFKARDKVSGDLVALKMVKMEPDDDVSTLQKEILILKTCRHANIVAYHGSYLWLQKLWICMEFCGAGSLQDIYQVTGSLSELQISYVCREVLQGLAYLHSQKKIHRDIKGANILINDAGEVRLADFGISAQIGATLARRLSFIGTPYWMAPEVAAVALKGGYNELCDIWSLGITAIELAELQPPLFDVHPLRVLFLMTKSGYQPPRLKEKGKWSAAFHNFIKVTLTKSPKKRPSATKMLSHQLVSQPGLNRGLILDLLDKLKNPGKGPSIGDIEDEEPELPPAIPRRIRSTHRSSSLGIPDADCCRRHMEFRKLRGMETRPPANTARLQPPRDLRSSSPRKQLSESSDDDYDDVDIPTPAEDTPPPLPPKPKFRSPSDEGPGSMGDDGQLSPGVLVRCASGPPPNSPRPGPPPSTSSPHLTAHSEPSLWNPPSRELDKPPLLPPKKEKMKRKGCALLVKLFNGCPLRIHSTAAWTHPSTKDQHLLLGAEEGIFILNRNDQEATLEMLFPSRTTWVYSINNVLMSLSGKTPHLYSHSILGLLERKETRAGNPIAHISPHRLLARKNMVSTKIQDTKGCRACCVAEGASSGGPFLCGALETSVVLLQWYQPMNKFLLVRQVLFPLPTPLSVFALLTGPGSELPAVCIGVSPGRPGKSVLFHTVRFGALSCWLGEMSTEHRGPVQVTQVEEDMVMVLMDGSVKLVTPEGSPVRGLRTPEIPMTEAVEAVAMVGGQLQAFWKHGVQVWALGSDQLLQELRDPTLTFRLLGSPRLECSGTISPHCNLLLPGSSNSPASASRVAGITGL
Assay: HPK1 Cellular HiBit Degradation Assay
Type: cell-based
Conditions: Jurkat, HiBiT HPK1 Jurkat cells, 24 hrs; maximum degradation vs DMSO vehicle control; read-out: Dmax Category

Hey, can you go through the list below and give me Dmax for every item?
1. CC(C)n1cnc2cc(-c3ccc4c(c3)N([C@H]3C[C@@H](N5CCCCC5)C3)C(=O)C43CCN(C(=O)C4CCN(C(=O)C5CCN(c6ccc(C7CCC(=O)NC7=O)cn6)CC5)CC4(F)F)CC3)nc(NC3CC3)c21 (mixture of isomers)
2. Cc1cc(N2CCC(C(=O)N3CCC(C)(C(=O)N4CCC5(CC4)C(=O)N([C@H]4C[C@@H](N6CCCCC6)C4)c4cc(-c6cc7ncn(C(C)C)c7c(NC7CC7)n6)ccc45)CC3)CC2)ncc1C1CCC(=O)NC1=O (mixture of isomers)
3. CC(C)n1cnc2cc(-c3ccc4c(c3)N([C@H]3C[C@@H](N5CCCCC5)C3)C(=O)C43CCN(C(=O)C4(C)CCN(C(=O)[C@H]5CC[C@H](N(C)c6ccc(C7CCC(=O)NC7=O)cc6)CC5)CC4)CC3)nc(NC3CC3)c21 (mixture of isomers)
4. CC(C)n1cnc2cc(-c3ccc4c(c3)N([C@H]3C[C@@H](N5CCCCC5)C3)C(=O)C43CCN(C(=O)C4CCN(C(=O)C5CCN(c6ccc(C7CCC(=O)NC7=O)cn6)CC5)CC4)CC3)nc(Oc3ccccc3F)c21 (mixture of isomers)
5. CC(C)n1cnc2cc(-c3ccc4c(c3)N([C@H]3C[C@@H](N5CCCCC5)C3)C(=O)C43CCN(C(=O)C4(C)CCN(C(=O)N5CC6(C5)CN(c5ccc(C7CCC(=O)NC7=O)cn5)C6)CC4)CC3)nc(NC3CC3)c21 (stereo partly shown)

-- reply
["70 to 85%", "70 to 85%", "50 to 70%", "> 85%", "50 to 70%"]

Hey, can you go through the list below and give me Dmax for every item?
1. Cc1cc(C2CCC(=O)NC2=O)ccc1O[C@H]1CC[C@H](C(=O)N2CCC(C)(C(=O)N3CCC4(CC3)C(=O)N([C@H]3C[C@@H](N5CCCCC5)C3)c3cc(-c5cc6ncn(C(C)C)c6c(NC6CC6)n5)ccc34)CC2)CC1 (mixture of isomers)
2. CC(C)n1cnc2cc(-c3ccc4c(c3)N([C@H]3C[C@@H](N5CCCCC5)C3)C(=O)C43CCN(C(=O)C4CCN(C(=O)[C@H]5CC[C@H](Oc6ccc(C7CCC(=O)NC7=O)cn6)CC5)CC4)CC3)nc(Nc3ccccc3F)c21 (mixture of isomers)
3. CC(C)n1cnc2cc(-c3ccc4c(c3)N([C@H]3C[C@@H](N5CCCCC5)C3)C(=O)C43CCN(C(=O)[C@@]45C[C@@H]4CN(C(=O)C4CCN(c6ccc(C7CCC(=O)NC7=O)cn6)CC4)C5)CC3)nc(NC3CC3)c21 (mixture of isomers)
4. CC(C)n1cnc2cc(-c3ccc4c(c3)N([C@H]3C[C@@H](N5CCCCC5)C3)C(=O)C43CCN(C(=O)C4(C)CCN(C(=O)C5CCN(c6ccc(C7CCC(=O)NC7=O)cn6)CC5)CC4)CC3)nc(NC3CC3)c21 (mixture of isomers)
5. CC(C)n1cnc2cc(-c3ccc4c(c3)N([C@H]3C[C@@H](N5CCCCC5)C3)C(=O)C43CCN(C(=O)C4(C)CCN(C(=O)C5CCN(c6ccc(C7CCC(=O)NC7=O)cn6)CC5)CC4)CC3)nc(Nc3ccccc3F)c21 (mixture of isomers)
6. CC(C)n1cnc2cc(-c3ccc4c(c3)N([C@H]3C[C@@H](N5CCCCC5)C3)C(=O)C43CCN(C(=O)[C@H]4CC[C@H](C(=O)N5CCC(Nc6ccc(C7CCC(=O)NC7=O)cn6)CC5)CC4)CC3)nc(Nc3ccccc3F)c21 (stereo partly shown)

-- reply
1: > 85%; 2: 50 to 70%; 3: 70 to 85%; 4: 70 to 85%; 5: 70 to 85%; 6: 70 to 85%

Hey, can you go through the list below and give me Dmax for every item?
1. CC(C)n1cnc2cc(-c3ccc4c(c3)N([C@H]3C[C@@H](N5CCCCC5)C3)C(=O)C43CCN(C(=O)[C@@H]4CCN(C(=O)[C@H]5CC[C@H](Oc6ccc(C7CCC(=O)NC7=O)cc6)CC5)C4)CC3)nc(NC3CC3)c21 (stereo partly shown)
2. CC(C)n1cnc2cc(-c3ccc4c(c3)N([C@H]3C[C@@H](N5CCCCC5)C3)C(=O)C43CCN(C(=O)C45CC(CN(C(=O)C6CCN(c7ccc(C8CCC(=O)NC8=O)cn7)CC6)C4)C5)CC3)nc(NC3CC3)c21 (mixture of isomers)
3. CC(C)n1cnc2cc(-c3ccc4c(c3)N([C@H]3C[C@@H](N5CCCCC5)C3)C(=O)C43CCN(C(=O)C[C@H]4CCCN(C(=O)CC5CCN(c6ccc(C7CCC(=O)NC7=O)cn6)CC5)C4)CC3)nc(NC3CC3)c21 (mixture of isomers)

-- reply
["> 85%", "70 to 85%", "50 to 70%"]

Hey, can you go through the list below and give me Dmax for every item?
1. CC(C)n1cnc2cc(-c3ccc4c(c3)N([C@H]3C[C@@H](N5CCCCC5)C3)C(=O)C43CCN(C(=O)[C@H]4CC[C@H](C(=O)N5CCC(N(C)c6ccc(C7CCC(=O)NC7=O)cc6)CC5)CC4)CC3)nc(Nc3ccccc3F)c21 (mixture of isomers)
2. CC(C)n1cnc2cc(-c3ccc4c(c3)N([C@H]3C[C@@H](N5CCCCC5)C3)C(=O)C43CCN(C(=O)C[C@H]4CCCN(C(=O)C5CCN(c6ccc(C7CCC(=O)NC7=O)cn6)CC5)C4)CC3)nc(NC3CC3)c21 (mixture of isomers)

-- reply
1: 70 to 85%; 2: 70 to 85%
